CC50 reference
Experiment: Cytotoxicity against human HepG2(2.2.15) cells by modified-MTT assay
Assay type: cell-based

# input Look at this molecule and give its reported CC50. CC(=O)Oc1ccc(/C=C/C(=O)O[C@H]2CC[C@@]3(C)C(=CC[C@]4(O)[C@@H]3C[C@@H](OC(=O)/C=C(\C)C(C)C)[C@@]3(C)[C@]4(O)CC[C@@]3(O)C(C)=O)C2)cc1
# output < 6.96 µM

# input Query (molecule): CC(=O)[C@]1(O)CC[C@@]2(O)[C@]1(C)[C@H](OC(=O)/C=C(\C)C(C)C)C[C@@H]1[C@@]3(C)CC[C@H](OC(=O)/C=C/c4ccc(F)cc4)CC3=CC[C@]12O ; field requested: CC50
# output > 1290 µM

# input Report CC50 for CC(=O)[C@]1(O)CC[C@@]2(O)[C@]1(C)[C@H](OC(=O)/C=C(\C)C(C)C)C[C@@H]1[C@@]3(C)CC[C@H](OC(=O)/C=C/c4ccc5c(c4)OCO5)CC3=CC[C@]12O please.
# output > 1660 µM

# input Record request: CC50 value, item CC(=O)[C@]1(O)CC[C@@]2(O)[C@]1(C)[C@H](OC(=O)/C=C(\C)C(C)C)C[C@@H]1[C@@]3(C)CC[C@H](OC(=O)/C=C/c4ccccc4C(F)(F)F)CC3=CC[C@]12O
# output 1760 µM

# input Given the entry CC(=O)[C@]1(O)CC[C@@]2(O)[C@]1(C)[C@H](OC(=O)/C=C(\C)C(C)C)C[C@@H]1[C@@]3(C)CC[C@H](OC(=O)/C=C/c4ccc(Br)cc4)CC3=CC[C@]12O , report its measured CC50.
# output > 1290 µM

# input What CC50 value was documented for this molecule, CC(=O)[C@]1(O)CC[C@@]2(O)[C@]1(C)[C@H](OC(=O)/C=C(\C)C(C)C)C[C@@H]1[C@@]3(C)CC[C@H](OC(=O)/C=C/c4ccc(F)c(F)c4)CC3=CC[C@]12O ?
# output > 1290 µM

---

The reader will find reported Ratio CC50/IC50 values listed item by item below.
Experiment: Selectivity index, ratio of CC50 for human HepG2(2.2.15) cells to IC50 for Hepatitis B virus infected in human HepG2(2.2.15) cells assessed as inhibition of viral e antigen secretion
Assay type: functional

Sample answers from the record:
# INPUT_SMILES, Ratio CC50/IC50
records = [
    ("COc1ccc(/C=C/C(=O)O[C@H]2CC[C@@]3(C)C(=CC[C@]4(O)[C@@H]3C[C@@H](OC(=O)/C=C(\\C)C(C)C)[C@@]3(C)[C@]4(O)CC[C@@]3(O)C(C)=O)C2)c(OC)c1OC", ">55.3"),
    ("COc1ccc(/C=C/C(=O)O[C@H]2CC[C@@]3(C)C(=CC[C@]4(O)[C@@H]3C[C@@H](OC(=O)/C=C(\\C)C(C)C)[C@@]3(C)[C@]4(O)CC[C@@]3(OC(=O)/C=C/c3ccc(OC)c(OC)c3)C(C)=O)C2)cc1OC", ">1.9"),
    ("CC(=O)[C@]1(O)CC[C@@]2(O)[C@]1(C)[C@H](OC(=O)/C=C(\\C)C(C)C)C[C@@H]1[C@@]3(C)CC[C@H](OC(=O)/C=C/c4ccc(Br)cc4)CC3=CC[C@]12O", ">2.7"),
    ("CC(=O)[C@]1(O)CC[C@@]2(O)[C@]1(C)[C@H](OC(=O)/C=C(\\C)C(C)C)C[C@@H]1[C@@]3(C)CC[C@H](OC(=O)/C=C/c4ccccc4Cl)CC3=CC[C@]12O", ">2.1"),
]

Now examine the next entry.
# input Need Ratio CC50/IC50 of CC(=O)[C@]1(O)CC[C@@]2(O)[C@]1(C)[C@H](OC(=O)/C=C(\C)C(C)C)C[C@@H]1[C@@]3(C)CC[C@H](OC(=O)/C=C/c4ccc(F)cc4)CC3=CC[C@]12O , thanks.
# output >32.6

---

Assay: Selectivity index, ratio of CC50 for human HepG2(2.2.15) cells to IC50 for Hepatitis B virus infected in human HepG2(2.2.15) cells assessed as inhibition of viral e antigen secretion
Type: functional
MEASUREMENT_KIND: Ratio CC50/IC50

Sample records with Ratio CC50/IC50:
# COMPOUND, MEASURED_VALUE
data = [
    ("COc1cc(/C=C/C(=O)O[C@H]2CC[C@@]3(C)C(=CC[C@]4(O)[C@@H]3C[C@@H](OC(=O)/C=C(\\C)C(C)C)[C@@]3(C)[C@]4(O)CC[C@@]3(O)C(C)=O)C2)cc(OC)c1OC", ">330"),
    ("COc1ccc(/C=C/C(=O)O[C@H]2CC[C@@]3(C)C(=CC[C@]4(O)[C@@H]3C[C@@H](OC(=O)/C=C(\\C)C(C)C)[C@@]3(C)[C@]4(O)CC[C@@]3(O)C(C)=O)C2)cc1OC", ">18.8"),
    ("CC(=O)[C@]1(O)CC[C@@]2(O)[C@]1(C)[C@H](OC(=O)/C=C(\\C)C(C)C)C[C@@H]1[C@@]3(C)CC[C@H](OC(=O)/C=C/c4ccc(F)c(F)c4F)CC3=CC[C@]12O", 28.3),
    ("CC(=O)[C@]1(O)CC[C@@]2(O)[C@]1(C)[C@H](OC(=O)/C=C(\\C)C(C)C)C[C@@H]1[C@@]3(C)CC[C@H](OC(=O)/C=C/c4cccc(F)c4)CC3=CC[C@]12O", ">84.7"),
]

Here's the next entry for you.
# input What value of Ratio CC50/IC50 has been reported for the following compound? C[C@H](Cn1cnc2c(N)ncnc21)OCP(=O)(O)O [TENOFOVIR ANHYDROUS]
# output >1.5

---

Listed here: items and their measured Ratio CC50/IC50.
Experiment: Selectivity index, ratio of CC50 for human HepG2(2.2.15) cells to IC50 for Hepatitis B virus infected in human HepG2(2.2.15) cells assessed as inhibition of viral e antigen secretion
Assay type: functional

# MOLECULE, MEASURED_VALUE
rows = [
    ("COc1cc(/C=C/C(=O)O[C@H]2CC[C@@]3(C)C(=CC[C@]4(O)[C@@H]3C[C@@H](OC(=O)/C=C(\\C)C(C)C)[C@@]3(C)[C@]4(O)CC[C@@]3(O)C(C)=O)C2)cc(OC)c1", ">2.7"),
    ("CC(=O)[C@]1(O)CC[C@@]2(O)[C@]1(C)[C@H](OC(=O)/C=C(\\C)C(C)C)C[C@@H]1[C@@]3(C)CC[C@H](OC(=O)/C=C/c4ccccc4[N+](=O)[O-])CC3=CC[C@]12O", ">29.4"),
    ("CC(=O)[C@]1(O)CC[C@@]2(O)[C@]1(C)[C@H](OC(=O)/C=C(\\C)C(C)C)C[C@@H]1[C@@]3(C)CC[C@H](OC(=O)/C=C/c4cccc(Br)c4)CC3=CC[C@]12O", 34.4),
    ("CC(=O)[C@]1(O)CC[C@@]2(O)[C@]1(C)[C@H](OC(=O)/C=C(\\C)C(C)C)C[C@@H]1[C@@]3(C)CC[C@H](O)CC3=CC[C@]12O [CAUDATIN]", "<1.3"),
    ("COc1cccc(/C=C/C(=O)O[C@H]2CC[C@@]3(C)C(=CC[C@]4(O)[C@@H]3C[C@@H](OC(=O)/C=C(\\C)C(C)C)[C@@]3(C)[C@]4(O)CC[C@@]3(O)C(C)=O)C2)c1", ">43.3"),
]

# input Given the molecule COc1ccc(/C=C/C(=O)O[C@H]2CC[C@@]3(C)C(=CC[C@]4(O)[C@@H]3C[C@@H](OC(=O)/C=C(\C)C(C)C)[C@@]3(C)[C@]4(O)CC[C@@]3(O)C(C)=O)C2)cc1 , what is its reported Ratio CC50/IC50?
# output >2.4

# input Value lookup for Ratio CC50/IC50; key = CC(=O)[C@]1(O)CC[C@@]2(O)[C@]1(C)[C@H](OC(=O)/C=C(\C)C(C)C)C[C@@H]1[C@@]3(C)CC[C@H](OC(=O)/C=C/c4ccccc4)CC3=CC[C@]12O
# output >15

# input May I ask what Ratio CC50/IC50 has been recorded for CC(=O)[C@]1(O)CC[C@@]2(O)[C@]1(C)[C@H](OC(=O)/C=C(\C)C(C)C)C[C@@H]1[C@@]3(C)CC[C@H](OC(=O)/C=C/c4ccccc4C(F)(F)F)CC3=CC[C@]12O ?
# output <1.4

# input Look up Ratio CC50/IC50: CC(=O)[C@]1(O)CC[C@@]2(O)[C@]1(C)[C@H](OC(=O)/C=C(\C)C(C)C)C[C@@H]1[C@@]3(C)CC[C@H](OC(=O)/C=C/c4ccccc4F)CC3=CC[C@]12O
# output 24.2

# input Returns the measured Ratio CC50/IC50 for the input molecule. Input: CCOc1cccc(/C=C/C(=O)O[C@H]2CC[C@@]3(C)C(=CC[C@]4(O)[C@@H]3C[C@@H](OC(=O)/C=C(\C)C(C)C)[C@@]3(C)[C@]4(O)CC[C@@]3(O)C(C)=O)C2)c1
# output >15.2
